Consider the following molecules; for each one, report its Emax.
Biological target: delF508-CFTR-HRP (Homo sapiens, UniProt P13569, DEL508-508)
Construct: expressed in transfected cells
Sequence (P13569 with tags, fused parts or gaps DEL508-508): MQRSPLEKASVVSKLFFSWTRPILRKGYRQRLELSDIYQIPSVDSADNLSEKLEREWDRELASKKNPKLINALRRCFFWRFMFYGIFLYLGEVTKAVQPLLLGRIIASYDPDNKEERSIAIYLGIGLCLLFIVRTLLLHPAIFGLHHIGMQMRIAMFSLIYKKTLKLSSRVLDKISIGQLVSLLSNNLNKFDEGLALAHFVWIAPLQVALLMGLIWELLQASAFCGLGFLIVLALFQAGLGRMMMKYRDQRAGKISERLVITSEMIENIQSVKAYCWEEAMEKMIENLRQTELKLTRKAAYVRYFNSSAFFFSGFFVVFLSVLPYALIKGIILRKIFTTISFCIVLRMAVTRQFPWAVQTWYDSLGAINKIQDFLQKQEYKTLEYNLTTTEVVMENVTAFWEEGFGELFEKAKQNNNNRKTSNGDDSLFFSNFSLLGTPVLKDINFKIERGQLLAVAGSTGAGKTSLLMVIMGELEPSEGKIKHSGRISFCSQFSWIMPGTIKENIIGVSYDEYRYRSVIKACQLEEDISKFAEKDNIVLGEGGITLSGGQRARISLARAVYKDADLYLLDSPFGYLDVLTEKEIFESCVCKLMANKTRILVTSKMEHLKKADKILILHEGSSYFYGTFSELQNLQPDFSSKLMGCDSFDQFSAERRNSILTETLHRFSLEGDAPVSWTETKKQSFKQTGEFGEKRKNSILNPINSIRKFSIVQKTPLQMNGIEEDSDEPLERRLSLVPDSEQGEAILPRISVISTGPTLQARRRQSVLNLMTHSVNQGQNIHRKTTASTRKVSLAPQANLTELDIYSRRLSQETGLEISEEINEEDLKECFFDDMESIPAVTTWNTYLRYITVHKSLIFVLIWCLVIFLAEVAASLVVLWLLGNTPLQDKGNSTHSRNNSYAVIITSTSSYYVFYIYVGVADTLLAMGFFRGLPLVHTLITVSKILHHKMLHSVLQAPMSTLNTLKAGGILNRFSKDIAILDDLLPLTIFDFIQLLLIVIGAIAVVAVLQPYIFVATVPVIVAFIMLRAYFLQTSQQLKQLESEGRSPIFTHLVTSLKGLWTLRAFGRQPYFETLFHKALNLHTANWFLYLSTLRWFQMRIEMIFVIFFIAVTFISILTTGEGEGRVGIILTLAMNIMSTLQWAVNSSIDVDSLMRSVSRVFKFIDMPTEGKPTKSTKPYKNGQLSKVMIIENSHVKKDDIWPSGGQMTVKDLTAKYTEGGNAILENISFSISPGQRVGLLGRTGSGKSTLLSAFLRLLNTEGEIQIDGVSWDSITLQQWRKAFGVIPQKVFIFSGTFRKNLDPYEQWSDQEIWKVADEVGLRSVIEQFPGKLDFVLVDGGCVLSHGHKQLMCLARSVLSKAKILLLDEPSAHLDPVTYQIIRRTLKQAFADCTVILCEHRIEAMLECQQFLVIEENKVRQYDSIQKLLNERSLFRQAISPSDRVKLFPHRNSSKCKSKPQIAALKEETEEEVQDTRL
Test: Measurement of delF508-CFTR-HRP surface expression in CFBE41o- cells (HRP luminescence);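 further: percent efficacy relative to a reference CFTR corrector compound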
Format: cell-based
Settings: CFBE41o-, read-out: DelF508-CFTR-HRP Amax %
Method: Measurement of delF508-CFTR-HRP Surface Expression in CFBE41o-Cells This assay quantifies the cell surface expressions of the mutant CFTR channel using an extracellular HRP tag. […] The median activity for the lowest concentration of the compounds on each assay plate was calculated and this value was used to normalize the signal for each well on the respective plate. […] The median value was determined and used to calculate compound activities as described below. […]
One number for each entry, in %.

Cc1ccc(C2CCCCC2)c(OC2(C(=O)NS(=O)(=O)c3cccc(N4CCNC(=O)C4)n3)CC2)c1: 114
O=C(NS(=O)(=O)c1cccc(N2CC(O)C2)n1)C1(Oc2cc(Cl)ccc2C2CCCCC2)CC1: 328
CC1(C)CCCN(c2ccc(Cl)cc2OC2(C(=O)NS(=O)(=O)c3cccc(N4CCC(O)(C(F)(F)F)CC4)n3)CC2)C1: 604
Cc1ccc(C2CCCCC2)c(OC2(C(=O)NS(=O)(=O)c3cccc(N[C@H]4C[C@H](O)C4)n3)CC2)c1: 235
Cc1ccc(C2CCCCC2)c(OC2(C(=O)NS(=O)(=O)c3cccc(N4CCC(C)(NC(=O)OC(C)(C)C)C4)n3)CC2)c1 (centres unmarked): 591

Working through the 3 molecules below one at a time, give Emax for each.
1. CC(C)[C@H](CO)Nc1cccc(S(=O)(=O)NC(=O)C2(Oc3cc(Cl)ccc3N3CCC(C)(C)CC3)CC2)n1
2. Cc1ccc(C2CCCCC2)c(OC2(C(=O)NS(=O)(=O)c3cccc(N4CCC(NC(=O)OC(C)(C)C)CC4)n3)CC2)c1
3. CC1(C)CCN(c2ccc(Cl)cc2OC2(C(=O)NS(=O)(=O)c3cccc(N4CCC5(CC4)OCc4ccccc45)n3)CC2)CC1

Out:
1: 789; 2: 556; 3: 307

Value sought for every listed molecule: Emax.
1. Cc1ccc(C2CCCCC2)c(OC2(C(=O)NS(=O)(=O)c3cccc(N4CCOC(C)C4)n3)CC2)c1 (centres unmarked)
2. COC(=O)C(C)(C)CN1CCN(c2cccc(S(=O)(=O)NC(=O)C3(Oc4cc(C)ccc4C4CCCCC4)CC3)n2)CC1
3. O=C(NS(=O)(=O)c1cccc(N2CC[C@H](O)C2)n1)C1(Oc2cc(Cl)ccc2-c2ccc(F)c(C(F)(F)F)c2)CC1
4. Cc1ccc(C2CCCCC2)c(OC2(C(=O)NS(=O)(=O)c3cccc(N4CCC(C)(C#N)CC4)n3)CC2)c1

Out:
1: 621; 2: 293; 3: 279; 4: 284

Hi team, please reply with Emax for each item in this list.
1. Cc1ccc(C2CCCCC2)c(OC2(C(=O)NS(=O)(=O)c3cccc(N4CCNCC4)n3)CC2)c1
2. Cc1ccc(C2CCCCC2)c(OC2(C(=O)NS(=O)(=O)c3cccc(N4CCC(C)(N)C4)n3)CC2)c1 (centres unmarked)

Out:
[96, 181]
